- System: Fer (mouse)
- test-details: phosphorylation enrichment, bacterial display (enrichment ratio); higher = better substrate or ligand; peptides without Tyr show the background
Each entry gets 0 (no) if its phosphorylation enrichment stays under 0.5, and 1 (yes) if its phosphorylation enrichment is 0.5 or above.

- seq: "RAYSWYQHQRA [NDST1_Y714]"
  class: "1 (yes)"
- seq: "CTTIHYNYMCD [TP53_Y234_N239D]"
  class: "0 (no)"
- seq: "LNWIYYKDQTG [RS1_Y166]"
  class: "1 (yes)"
- seq: "LRFEVYGGENE [STOX1_Y610_YF]"
  class: "0 (no)"
- seq: "FVPAAYVKKLD [SPTAN1_Y1020]"
  class: "0 (no)"
- seq: "EKSREYDRLYE [PIK3R1_Y463]"
  class: "1 (yes)"
- seq: "CTTIHYNYMYN [TP53_Y234_C238Y]"
  class: "1 (yes)"
- seq: "KHMADYPDYKY [SOX11_Y113]"
  class: "0 (no)"
- seq: "MRTMGYMPREM [CABP5_Y62_T65R]"
  class: "0 (no)"
- seq: "VGTKQYMAPEV [ACVRL1_Y375_R374Q]"
  class: "0 (no)"
- seq: "GGSTFYIDTNA [ACTL6A_Y69_P66S_YF]"
  class: "0 (no)"
- seq: "VNTTLYEKFTF [TEK_Y1108_YF]"
  class: "1 (yes)"
- seq: "FVTSMYNEILM [TRPV1_Y310]"
  class: "1 (yes)"
- seq: "KNKNRYKNILP [PTPN11_Y279]"
  class: "1 (yes)"
- seq: "LSDGPYSSPFE [EPOR_Y485_N487S_YF]"
  class: "0 (no)"
- seq: "LERFIYNREEF [HLA-DPB1_Y59_F64Y_YF]"
  class: "1 (yes)"
- seq: "WEQELYSQLVF [WAS_Y102_YF]"
  class: "1 (yes)"
- seq: "HFGCVYFGTLL [MET_Y1093_H1094Y_YF]"
  class: "0 (no)"
- seq: "TEQDPYNNIVR [MMUT_Y364]"
  class: "0 (no)"
- seq: "KVKPIYFRTQG [AR_Y916_H918R]"
  class: "0 (no)"
- seq: "TNYSLYLRSLE [MTM1_Y71_R69S]"
  class: "1 (yes)"
- seq: "HICTAYELVLA [DHCR24_Y190]"
  class: "1 (yes)"
- seq: "GGDQPYSGAGD [TYRO3_Y828_R824G]"
  class: "0 (no)"
- seq: "VFAADYFKLLG [ROR2_Y645_YF]"
  class: "0 (no)"
- seq: "WVYNHYRCIIW [BRCA2_Y2624_W2626C]"
  class: "1 (yes)"
- seq: "GFVEDYRPPFY [ACVRL1_Y421_I417F]"
  class: "1 (yes)"
- seq: "FIGVTYKNKED [PDGFRA_Y993_E996K_YF]"
  class: "0 (no)"
- seq: "VKKKLDEEIDQ [CYP17A1_Y329_Y329D]"
  class: "0 (no)"
- seq: "PIQLFYTRRNT [GHR_Y86]"
  class: "1 (yes)"
- seq: "LYSDHYSPSGR [TMPRSS12_Y23]"
  class: "1 (yes)"
- seq: "DDPRRYQKYGY [OAS1_Y362]"
  class: "0 (no)"
- seq: "ASMAKYYASGI [ACADSB_Y372_E376G]"
  class: "0 (no)"
- seq: "RRSQSYIPTSG [PLEKHA2_Y185]"
  class: "0 (no)"
- seq: "FHIDHYLGKEM [G6PD_Y202_R198H_YF]"
  class: "0 (no)"
- seq: "LLGFLYFFVCS [SLC34A2_Y109]"
  class: "1 (yes)"
- seq: "RRIHSYRGHLC [VHL_Y112_W117C]"
  class: "0 (no)"
- seq: "CTHDLYMFMRE [FGFR3_Y724_I726F]"
  class: "1 (yes)"
- seq: "FVHDNYVIWRT [CPS1_Y1450_R1453W]"
  class: "1 (yes)"
- seq: "RLQEDYDHSYY [ESD_Y258_G257D]"
  class: "1 (yes)"
- seq: "MSRYIYSTDYY [NTRK1_Y676_D674Y]"
  class: "1 (yes)"
- seq: "QRRFVYFFSFL [PTEN_Y176_YF]"
  class: "1 (yes)"
- seq: "ALTDNYMFVVI [HAGH_Y61_L64V_YF]"
  class: "1 (yes)"
- seq: "AVLSLYASGCT [ACTA2_Y145_R149C]"
  class: "1 (yes)"
- seq: "TGDRPYVCPFD [YY1_Y383]"
  class: "0 (no)"
- seq: "GADDSYFTVRS [ZAP70_Y492_A495V_YF]"
  class: "0 (no)"
- seq: "GIMEEYQLPFF [BMPR1A_Y453_V450M_YF]"
  class: "1 (yes)"
- seq: "GTHCHYKAPIV [FZD9_Y569_T573I]"
  class: "1 (yes)"
- seq: "LDFNEYFRDLN [HPRT1_Y198_YF]"
  class: "0 (no)"
- seq: "PLLEFYWDIFT [CDAN1_Y713_R714W_YF]"
  class: "1 (yes)"
- seq: "ALPVFYAATIA [SLC20A2_Y187]"
  class: "1 (yes)"
- seq: "PAIYTYDEYKK [COL8A2_Y648_T645I]"
  class: "1 (yes)"
- seq: "MKALGYFAVVT [OPA1_Y498]"
  class: "1 (yes)"

---

- target-of-assay: SHP2-C SH2;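 also: peptide library displayed on the E. coli surface as eCPX fusions, selected cells deep-sequenced, score is each peptide's frequency after selection divided by its frequency in the input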
- test-details: SH2 binding enrichment of the phosphorylated peptide, bacterial display (enrichment ratio); higher = better substrate or ligand; peptides without Tyr show the background

- seq: "DCLASYLDKVR [KRT10_Y160_R156C]"
  SH2 binding enrichment: 0.711
- seq: "AVISVYDLVAF [PSEN1_Y256_V261F]"
  SH2 binding enrichment: 0.837
- seq: "CTHDLYMFMRE [FGFR3_Y724_I726F]"
  SH2 binding enrichment: 0.636
- seq: "LAVNPYGPPDL"
  SH2 binding enrichment: 0.873
- seq: "ADTETYLLEKS [MYH7_Y266_I263T]"
  SH2 binding enrichment: 0.785
- seq: "SVTCTYSPALS [TP53_Y126_N131S]"
  SH2 binding enrichment: 0.44
- seq: "VTSLKYSTPPF [BRIP1_Y916_S919P_YF]"
  SH2 binding enrichment: 0.56
- seq: "LQEKSYIKGTS [LCTL_Y331]"
  SH2 binding enrichment: 1.1
- seq: "GMEIVYVYVKK [DNAI2_Y5]"
  SH2 binding enrichment: 0.722
- seq: "LSSISYVGCSL [ADGRD1_Y571]"
  SH2 binding enrichment: 1.1
- seq: "EVEPRYVVLYD [ERCC4_Y577]"
  SH2 binding enrichment: 1.84
- seq: "KRLAVYQAGAR [APOE_Y180]"
  SH2 binding enrichment: 1.05
- seq: "FEKNVYVDKNL [PTCHD3_Y688]"
  SH2 binding enrichment: 0.543
- seq: "RRGMPYGGCGD [TGM1_Y312_R315C]"
  SH2 binding enrichment: 0.57

---

- target-of-assay: EPHB2 (UniProt P29323)
- Sequence (P29323 whole entry, looked up): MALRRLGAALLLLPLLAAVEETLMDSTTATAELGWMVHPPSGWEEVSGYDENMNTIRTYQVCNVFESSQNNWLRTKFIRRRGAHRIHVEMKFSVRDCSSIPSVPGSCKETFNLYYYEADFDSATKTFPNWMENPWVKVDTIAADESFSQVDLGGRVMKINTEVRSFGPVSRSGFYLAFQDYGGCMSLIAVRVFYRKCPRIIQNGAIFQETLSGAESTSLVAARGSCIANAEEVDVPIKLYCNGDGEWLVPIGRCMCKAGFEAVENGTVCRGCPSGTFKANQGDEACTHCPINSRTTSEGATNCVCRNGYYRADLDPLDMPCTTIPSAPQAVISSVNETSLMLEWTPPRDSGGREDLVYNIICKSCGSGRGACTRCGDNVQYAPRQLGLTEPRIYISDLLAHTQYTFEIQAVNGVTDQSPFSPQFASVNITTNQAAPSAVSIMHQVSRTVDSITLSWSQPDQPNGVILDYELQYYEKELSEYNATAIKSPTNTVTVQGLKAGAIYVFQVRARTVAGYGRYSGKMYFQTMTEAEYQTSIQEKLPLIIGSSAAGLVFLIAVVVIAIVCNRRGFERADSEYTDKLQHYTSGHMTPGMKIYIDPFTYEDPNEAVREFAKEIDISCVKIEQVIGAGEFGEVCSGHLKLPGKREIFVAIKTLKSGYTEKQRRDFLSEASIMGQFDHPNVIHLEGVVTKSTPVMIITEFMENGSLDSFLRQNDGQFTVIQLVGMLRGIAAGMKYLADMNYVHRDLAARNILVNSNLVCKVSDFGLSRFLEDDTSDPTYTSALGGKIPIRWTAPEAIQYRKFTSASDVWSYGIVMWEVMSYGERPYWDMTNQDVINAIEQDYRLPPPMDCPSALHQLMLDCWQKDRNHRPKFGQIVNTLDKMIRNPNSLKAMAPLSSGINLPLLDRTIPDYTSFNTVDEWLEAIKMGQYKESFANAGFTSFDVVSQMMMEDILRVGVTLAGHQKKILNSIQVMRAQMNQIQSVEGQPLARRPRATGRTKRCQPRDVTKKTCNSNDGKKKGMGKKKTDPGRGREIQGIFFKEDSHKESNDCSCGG
- test-details: phosphorylation enrichment, bacterial display (enrichment ratio); higher = better substrate or ligand; peptides without Tyr show the background
Category | rule: reported phosphorylation enrichment within range, see low range: < 0.5; mid range: ≥ 0.5 and < 0.7; high range: ≥ 0.7

- seq: "PRLMLYNPTTF [EGFR_Y270_P266R_YF]"
  class: "high range"
- seq: "ISISPYPAILH [IFT80_Y588_T586S]"
  class: "low range"
- seq: "VDEVLYEDSST [MTHFS_Y197]"
  class: "mid range"
- seq: "FKELVYETVRV [FSHB_Y76]"
  class: "high range"
- seq: "DVFRQYASLTG [GANAB_Y379]"
  class: "low range"
- seq: "FPCSVYVPDEW [INSR_Y1011]"
  class: "mid range"
- seq: "NGRQCYSCKGN [PLAUR_Y217]"
  class: "low range"
- seq: "VDYQPYRKHKY [TEX37_Y28]"
  class: "low range"
- seq: "QKKPRYEIRWK [PDGFRB_Y562]"
  class: "high range"
- seq: "IIRFNYLLDVL [FGFR4_Y237_S232I_YF]"
  class: "low range"
- seq: "LQLLGHRPVYS [CHST6_Y358_Y358H]"
  class: "low range"
- seq: "VKPENYRRPDI [VHL_Y175_L178P]"
  class: "low range"
- seq: "SLFPGYNFRFA [P2RX7_Y291_YF]"
  class: "low range"
- seq: "LDLPGYCLLRE [CCDC116_Y291_P293L]"
  class: "high range"
- seq: "AHEALYLEADL [CENPF_Y1920_E1915A]"
  class: "high range"
- seq: "KYVKMYDNHQL [MYO9A_Y203]"
  class: "low range"
- seq: "HSLRDYKEALM [ADA2_Y337_H335R]"
  class: "low range"
- seq: "NFDLDYDSVQP [MYC_Y16_YF]"
  class: "high range"
- seq: "TTSQLYDAMPI [PDPK1_Y9_V12M]"
  class: "high range"
- seq: "NYCPGYNNFYN [USH2A_Y467_R464C]"
  class: "high range"
- seq: "GFDHSYFFIAT [ESD_Y262_YF]"
  class: "mid range"
- seq: "RTEAQYRFIFM [PTPN11_Y511_Q506R_YF]"
  class: "mid range"
- seq: "LEKISYVYMKR [SSX7_Y48]"
  class: "high range"
- seq: "LGSNGYKKLLK [SEPSECS_Y334]"
  class: "low range"
- seq: "DQIDTYELSGA [DNM1_Y354_G359A]"
  class: "mid range"
- seq: "QLQTTYPSSDN [MAX_Y115_N114T]"
  class: "low range"
- seq: "FHIDHYLGKEM [G6PD_Y202_R198H_YF]"
  class: "mid range"
- seq: "SVQVEYMKTIL [GLYATL2_Y127_D126E]"
  class: "low range"
- seq: "ALPVFYAATIA [SLC20A2_Y187]"
  class: "high range"
- seq: "IFCIQYNIRAF [MYH4_Y820]"
  class: "mid range"
- seq: "YDEYRYRSFIK [CFTR_Y517_V520F]"
  class: "mid range"
- seq: "SGIYQYSIAKF [FOXL2_Y83_I84S]"
  class: "high range"
- seq: "QDIMAYRGREV [BCL6_Y157]"
  class: "mid range"
- seq: "QRIYQYIRSRF [DYRK1B_Y273_Q275R]"
  class: "mid range"
- seq: "LHQSTYQCYDV [SLC7A14_Y693_R695C]"
  class: "high range"
- seq: "SVVVPHEPPEV [TP53_Y220_Y220H]"
  class: "low range"
- seq: "LSIDRYHAIVF [NPSR1_Y147_YF]"
  class: "high range"
- seq: "CNRADYSKLAP [GNE_Y22]"
  class: "mid range"
- seq: "GTQCSYLLSRK [UGT3A1_Y123]"
  class: "mid range"
- seq: "ITLPIYTKGSE [ANK2_Y1455_E1458G]"
  class: "low range"
- seq: "NTFENYWPFFQ [GATM_Y103_K102N_YF]"
  class: "high range"
- seq: "LAAAGYDVKKN [H1-3_Y72_E75K]"
  class: "low range"
- seq: "SVTCTHSPALN [TP53_Y126_Y126H]"
  class: "mid range"
- seq: "YVGGFYGGCNE [CTSC_Y352]"
  class: "mid range"
- seq: "PSARTYCYKQE [KLHDC9_Y175]"
  class: "high range"
- seq: "EKEKKYMLPLD [DNM2_Y563]"
  class: "low range"
- seq: "GEHSIYSTVNN [CD55_Y266_C267S]"
  class: "high range"

Taken from the supplement of paper PMC10065799.
